- Tested on: MCF7 breast
- PROTOCOL_SUMMARY: NCI tumour cell line growth inhibition, 48 h; in the data active = GI50 below about 0.43 µM; inactive = the rest
// one of 1 = active, -1 = inactive, no free text

Here are 2 molecules together with their reported answers.
O=S(=O)(Nc1cc(Sc2cccc3cccnc23)c(O)c2ccccc12)c1ccc(F)cc1 = -1
CCOc1ccccc1C(=O)N1CCN(c2cc(Cl)cc(Cl)c2)CC1 = 1

Give the logged outcome of this assay for the following molecule: `CNCCCNCCCCNCCCN1C(=O)c2ccc3c4c(ccc(c24)C1=O)C(=O)N(CCCNCc1ccccc1OC)C3=O`
-1

Status in this test for `COc1cccc(OC(=O)c2ccc(C(F)(F)F)nc2Nc2cc(Cl)ccc2C)c1` ?
-1

Hi, sorry to bother you, what did the test record for `CCN(CC)c1ccc2cc(C(=O)Nc3ccc4[nH]c(C(=O)N5C[C@@H](CCl)c6c5cc(OC(=O)Nc5ccccc5)c5[nH]cc(C)c65)cc4c3)oc2c1` ?
-1

Fill in: this test's call for `O=S(=O)(c1ccc(Cl)cc1)C(Cl)(Cl)Cl` is ___
-1

Each molecule tested received a call. Report the one for `CN1CCN(C(=O)c2cc(-c3ccc4ncnc(N5CCc6cc(F)c(Cl)cc65)c4c3)cnc2N)CC1` .
1

Call for entry `COc1ccc(-c2[nH]c3ccccc3c2-c2ccc(OC)cc2)cc1` :
-1

Per the assay record, what outcome was assigned to COc1cc(N2C(=O)[C@H](O)C2c2ccc(SC)cc2)cc(OC)c1OC (some centres undefined) ?
1
